# SUBJECT OF TEST: CYP3A5 (Homo sapiens)
# Sequence (P20815 whole entry): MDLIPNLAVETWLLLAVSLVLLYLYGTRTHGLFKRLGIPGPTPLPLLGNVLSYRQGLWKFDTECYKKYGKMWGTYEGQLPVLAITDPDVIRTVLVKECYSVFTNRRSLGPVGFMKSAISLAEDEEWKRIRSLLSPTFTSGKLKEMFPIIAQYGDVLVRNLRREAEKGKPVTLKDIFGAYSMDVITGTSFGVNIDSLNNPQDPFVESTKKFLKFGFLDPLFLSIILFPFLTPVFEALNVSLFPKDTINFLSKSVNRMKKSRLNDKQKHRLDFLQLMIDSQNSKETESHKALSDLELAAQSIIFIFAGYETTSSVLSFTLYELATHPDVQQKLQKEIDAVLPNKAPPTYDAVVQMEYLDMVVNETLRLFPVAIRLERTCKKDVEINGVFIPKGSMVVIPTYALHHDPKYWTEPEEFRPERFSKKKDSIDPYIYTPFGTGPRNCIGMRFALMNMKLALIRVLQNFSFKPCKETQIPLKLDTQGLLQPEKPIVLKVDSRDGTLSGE
# ASSAY INFO: Ratio of Kinact to Ki for recombinant human CYP3A5 using testosterone as substrate
# Format: ADME
# MEASUREMENT PARAMETERS: recombinant human CYP3A5, probe testosterone
MEASURED PROPERTY: kinact/KI (M⁻¹ s⁻¹)
Your answer should be a plain number; it is taken to be in M⁻¹ s⁻¹.

Prompt: State its kinact/KI: CS(=O)(=O)CCNCc1ccc(-c2ccc3ncnc(Nc4ccc(OCc5cccc(F)c5)c(Cl)c4)c3c2)o1 [LAPATINIB]
Response: 10

====

# SUBJECT OF TEST: CYP3A5 (Homo sapiens)
# ASSAY INFO: Inhibition of human recombinant CYP3A5 using testosterone as substrate assessed as testosterone 6-beta-hydroxylation preincubated up to 30 mins with NADPH followed by substrate addition measured after 10 mins by LC/MS/MS analysis
# Assay type: ADME
# MEASUREMENT PARAMETERS: human, recombinant human CYP3A5, probe testosterone
MEASURED PROPERTY: kinact at 10 min (s⁻¹)
Your answer should be a plain number; it is taken to be in s⁻¹.

Prompt: State its kinact at 10 min: `CS(=O)(=O)CCNCc1ccc(-c2ccc3ncnc(Nc4ccc(OCc5cccc(F)c5)c(Cl)c4)c3c2)o1`
Response: 0.000377
